Tested on: ML-2
Experiment: cell viability (% survival relative to DMSO control, bortezomib = 0%); higher = less cytotoxic
Conditions: 100 nM; 72 h
Here, each record is paired with measured cell viability data.
parameter_measured: cell viability (%)

compound="CCCCCCCC/C=C\\CCCCCCCC(=O)Nc1ccccc1 [Octadec-9-Enoic Acid Phenylamide]" data_value=99.9
compound="CCN(CC)C(=S)SSC(=S)N(CC)CC [Disulfiram]" data_value=91.4
compound="CCc1c(C(=O)C(N)=O)c2c(OCC(=O)O)cccc2n1Cc1ccccc1 [Varespladib]" data_value=109
compound=COc1ccc2c(NC(=O)Nc3cccc(C(F)(F)F)n3)ccnc2c1 data_value=109
compound="CN(Cc1cnc2nc(N)nc(N)c2n1)c1ccc(C(=O)N[C@@H](CCC(=O)O)C(=O)O)cc1 [Methotrexate]" data_value=3.59
compound="CCOC(=O)c1sc(NC(=O)c2ccco2)c(SC#N)c1C [CBR-5884]" data_value=104

###

In this section we review reported cell viability values for a set of compounds.
System: HL-60
Test: cell viability (% survival relative to DMSO control); higher = less cytotoxic
Conditions: 10 µM; 72 h; co-treatment: pictilisib 100 nM
Where a name gives a salt, the structure may show the parent alone.
parameter_measured: cell viability (%)

compound=Cc1ccc(-c2cc(C(F)(F)F)nn2-c2ccc(S(N)(=O)=O)cc2)cc1 unit_of_measurement=% data_value=125
compound="CC/C=C\\C[C@H]1C(=O)CC[C@@H]1CC(=O)OC [methyl jasmonate]" unit_of_measurement=% data_value=99.6
compound=CC(C)CC(=O)N[C@H](C(=O)N[C@H](C(=O)N[C@@H](CC(C)C)[C@@H](O)CC(=O)N[C@@H](C)C(=O)N[C@@H](CC(C)C)[C@@H](O)CC(=O)O)C(C)C)C(C)C unit_of_measurement=% data_value=107
compound="N#C/C(=C\\c1ccc(O)cc1)C(=O)O [alpha-cyano-4-hydroxycinnamic acid]" unit_of_measurement=% data_value=91.3
compound="CN(Cc1cnc2nc(N)nc(N)c2n1)c1ccc(C(=O)N[C@@H](CCC(=O)O)C(=O)O)cc1 [Methotrexate]" unit_of_measurement=% data_value=28.1
compound="CCN(CCO)CCCC(C)Nc1ccnc2cc(Cl)ccc12 (configuration not stated) [Hydroxychloroquine sulfate]" unit_of_measurement=% data_value=103
compound="C=CCN(C)CCCCCCOc1ccc(C(=O)c2ccc(Br)cc2)c(F)c1.O=C(O)/C=C/C(=O)O [Ro 48-8071 fumarate]" unit_of_measurement=% data_value=38.3

###

Test system: myeloid leukemia patient primary cells Pat.10
Experiment: cell viability (% survival relative to DMSO control); higher = less cytotoxic
Details: 10 nM; 72 h
Quick reference: cell viability of the listed items.
parameter_measured: cell viability (%)

compound=CC(=O)Nc1nc(C)c(-c2ccc(Cl)c(S(=O)(=O)NCCO)c2)s1 parameter_measured="cell viability" unit_of_measurement=% data_value=22.6
compound=CO[C@H]1C[C@@H]2CC[C@@H](C)[C@@](O)(O2)C(=O)C(=O)N2CCCC[C@H]2C(=O)O[C@H]([C@H](C)C[C@@H]2CC[C@@H](OCCO)[C@H](OC)C2)CC(=O)[C@H](C)/C=C(\C)[C@@H](O)[C@@H](OC)C(=O)[C@H](C)C[C@H](C)/C=C/C=C/C=C/1C parameter_measured="cell viability" unit_of_measurement=% data_value=31.3
compound="C=CCN(C)CCCCCCOc1ccc(C(=O)c2ccc(Br)cc2)c(F)c1.O=C(O)/C=C/C(=O)O [Ro 48-8071 fumarate]" parameter_measured="cell viability" unit_of_measurement=% data_value=61.7
compound=Cn1cc(-c2ccncc2)c(-c2ccc(OCc3ccc4ccccc4n3)cc2)n1 parameter_measured="cell viability" unit_of_measurement=% data_value=65
compound=c1cc(-c2cnn3cc(-c4ccc(OCCN5CCCCC5)cc4)cnc23)ccn1 parameter_measured="cell viability" unit_of_measurement=% data_value=76.4
compound=CC(C)(C)c1ccc(S(=O)(=O)NCc2ccc(C(=O)Nc3cccnc3)cc2)cc1 parameter_measured="cell viability" unit_of_measurement=% data_value=35
